# EC50 values compiled below
test system: Streptococcus; assay: Group A Streptococcus viability loss, dose response, counter-screen for streptokinase expression inhibitor project, luminescence, BacTiterGlo (AID 1915); assay type: functional, organism-based;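 further: potency for reduction of bacterial viability or growth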
The source made the active and inactive calls. No stated cut-off is given here; in the data, actives have a measured EC50 and inactives only a lower limit.

Q: Given the entry C[C@H]1c2cccc(O)c2C(=O)C2=C(O)[C@]3(O)C(O)=C(C(N)=O)C(=O)[C@@H](N(C)C)C3[C@@H](O)C21 (some centres undefined) , report its measured EC50.
Ans: 0.109 µM (active)

Q: Given the entry Cc1ccc(NC(=O)c2cc(N3C(=O)C=CC3=O)ccc2N2CCOCC2)cc1Cl , report its measured EC50.
Ans: 13.4 µM (active)

Q: Given the entry O=C(CSc1ccccn1)N/N=C/c1cc([N+](=O)[O-])ccc1O , report its measured EC50.
Ans: 2.72 µM (active)

Q: Given the entry CN(c1ccccc1)c1nc(N2CCCC2)nc(-n2ccnc2)n1 , report its measured EC50.
Ans: > 50 µM (not active)
